Documented IC50 across a set of compounds
- Tested on: CEM cells HIV-1 protection, formazan growth assay
- experiment.description: NCI AIDS Antiviral Assay
- condition.context: measured here: growth of uninfected CEM cells
- Experimental: The ability of compounds to protect human CEM cells from HIV-1 infection is measured as a screen for new compounds capable of inhibiting the HIV virus. Five concentrations of drug were tested on uninfected and infected cells and cell growth was measured using a soluble formazan assay. […] Compounds that provided at least 50% protection were retested. Compounds that provided at least 50% protection on retest were listed as moderately active. […]

INSERT INTO measurements (compound, measured_value) VALUES
  ('[O-][N+](=Nc1ccccc1CO)c1ccccc1CO', '> 200 µM'),
  ('O=c1c2ccccc2nc(N/N=C/c2ccc(Cl)cc2)n1-c1ccccc1', '> 200 µM'),
  ('COC(=O)/C(=N/Nc1cccc(Cl)c1)C(C(=O)C(=O)Nc1cccc(Cl)c1C)c1nc2ccccc2nc1C (centres undefined)', '> 12.9 µM');

Sample COC(=O)N/N=C(\C)CC(=O)Nc1cccc([N+](=O)[O-])c1 — what was its IC50?
> 447 µM

Which value of IC50 has been reported for O=c1c2cc3ccccc3n2c(=O)c2cc3ccccc3n12 in the records?
> 5.01 µM

IC50 for COc1c(OCc2ccccc2)c(OCc2ccccc2)cc(COS(=O)(=O)O)c1-c1c(COS(=O)(=O)O)cc(OCc2ccccc2)c(OCc2ccccc2)c1OC ?
> 1.58 µM

# get_value(readout='IC50', item= C=C1SC(=Nc2ccc(Cl)cc2)N(c2nc(Cl)nc(Cl)n2)C12CCCCC2 )
> 100 µM

// IC50 lookup, key: O=c1c(Cc2ccccc2)c(O)cc2n1CCC2
> 148 µM

Recorded IC50 for CCCCOC(=O)c1cc(C(=CCC[C@H]2CC[C@@]3(C)[C@@H](CC[C@@H]4[C@@H]3CC[C@]3(C)[C@@H](C(C)CCCC(C)C)CC[C@@H]43)C2)c2cc(Cl)c(O)c(C(=O)OCCCC)c2)cc(Cl)c1O (some centres undefined) , please?
> 100 µM

Could you share which IC50 value was measured for CNC(=O)OCCOc1ccccc1 ?
> 200 µM

// query IC50 value for entry O=C(c1ccccc1)c1nnn(Cc2ccccc2Cn2nnc(C(=O)c3ccccc3)c2C(=O)c2ccccc2)c1C(=O)c1ccccc1
> 7.94 µM

Quick check: IC50 of O=C(O)c1ccc(P(=O)(O)c2ccc(C(=O)O)cc2Br)c(Br)c1 ?
> 200 µM

# lookup: IC50 of O=S1(=O)CCC(OC2CCS(=O)(=O)C2)C1 (centres undefined)
> 977 µM

Can you look up the measured IC50 of O=[N+]([O-])c1nccn1CC(O)CF (centres undefined) for me?
> 468 µM

Sourced from PubChem BioAssay AID179
